This section presents compounds with their documented melting point values.
reported endpoint: melting point

compound=O=C(NCCc1ccccc1)C1=C(C(=O)Nc2cc(OC3CCCC3)c(Cl)cc2F)CCCC1 reported_endpoint="melting point" test_result="165 to 166 °C"
compound=O=C1C=CC(=O)N1c1ccc2c3c(cccc13)-c1ccccc1-2 reported_endpoint="melting point" test_result="185 to 186 °C"
compound="Cc1ccc(N2C(=O)C(O)=C(C(=O)c3ccc(CC(C)C)cc3)C2c2ccc(OC(F)(F)F)cc2)nn1 (centres undefined)" reported_endpoint="melting point" test_result="260 °C"
compound=NS(=O)(=O)c1ccc(NN=C2C(=O)Nc3ccc(C(=O)NCc4ccco4)cc32)cc1 reported_endpoint="melting point" test_result="> 250 °C"

---

Below, each of the compounds is paired with its reported melting point value.
reported endpoint: melting point

compound=CCOC(=O)c1cn(C2CC2)c2oc(CN3CCOCC3)cc2c1=O test_result="196 to 198 °C"
compound=CC(C)Cn1cc(F)c(-n2cncn2)nc1=O test_result="150 to 153 °C"
compound=O=C(O)C(=O)CC(=O)c1ccc(C2CCCCC2)cc1 test_result="140 to 142 °C"
compound="CCC(CC)CC(NC(=O)COC)C1(c2ccc(Cl)c(Cl)c2)CCC1 (stereo not given)" test_result="72 to 74 °C"
compound=CC1(C)Oc2ccccc2-n2cnc(-c3noc(C4CC4)n3)c21 test_result="155 to 156 °C"
compound=CCc1cccc(C)c1CNc1cc(C(N)=O)nc2c1nc(C)n2C test_result="237 to 239 °C"
compound="N#CC1CN1C(=O)NC(=O)C(Cl)(Cl)Cl (stereo not given)" test_result="150 to 152 °C"
compound=c1ccc(-c2ccnc3ncnn23)cc1 test_result="140 °C"
compound="Cn1nc(-c2cnc3[nH]cc(C(=O)NC4CCOC4)c3n2)c2ccc(Cl)cc21 (stereo not given)" test_result="345 to 347 °C"
compound="O=C(N[C@@H]1CN(C2CCCCC2)C[C@H]1O)c1ccc([N+](=O)[O-])cc1 (relative stereo)" test_result="156 to 157 °C"

---

# melting point per entry
reported endpoint: melting point

structure=CS(=O)(=O)NCCCCn1c(CCO)nc2c(N)nc3ccccc3c21 test_result="206 to 208 °C"
structure=O=c1c2c(c3cccnc3n1-c1ccccc1)OCCCC2 test_result="180 to 181 °C"
structure=NS(=O)(=O)c1cccc(-c2cn(-c3nc(-c4ccc(C(F)(F)F)cc4)cc(C(F)(F)F)n3)cn2)c1 test_result="198 °C"
structure=CCOC(=O)c1cc2cccnc2nc1C(=O)OCC test_result="83 to 85 °C"
structure=Nc1ccc2c(c1)CN(c1c(F)cc3c(=O)c(C(=O)O)cn(-c4ccc(F)cc4F)c3c1F)C2 test_result="> 300 °C"

---

This section presents molecules with their documented melting point values.
reported endpoint: melting point

molecule="CCCCCC(C)C(C)c1cc(O)c2c(c1)OC(C)(C)C1=C2CN(CC(=O)NC)CC1 (stereo not given)" reported_endpoint="melting point" test_result="131 to 134 °C"
molecule=COc1cc2c(c3c1OC(C)(C)C3)C(c1cccc(NC(=O)CS(C)(=O)=O)c1)=NC(C)(C)C2 reported_endpoint="melting point" test_result="135 to 140 °C"
molecule=Cc1cc(C)nc(N(C(=O)C(Cl)(Cl)Cl)c2ccccc2)n1 reported_endpoint="melting point" test_result="126 to 127 °C"
molecule=O=C(c1ccccc1F)c1cc(Br)ccc1NC(=O)C(F)(F)F reported_endpoint="melting point" test_result="132 °C"
molecule=Cc1nn(-c2ccccc2)cc1C(=O)Nc1ccc(OCC(C)(C)C)c(C#N)c1 reported_endpoint="melting point" test_result="155 to 156 °C"
molecule=CC(C)OC(=O)c1cc(-n2c(=O)[nH]c3c(c2=O)CCO3)c(F)cc1Cl reported_endpoint="melting point" test_result="213 to 215 °C"
molecule=COc1cc(N2CCNCC2)c2ncccc2c1 reported_endpoint="melting point" test_result="105 to 107 °C"
molecule="COc1ccc(C2Nc3cc(OC)c(OC)cc3C(C)=[N+]2[O-])cc1 (stereo not given)" reported_endpoint="melting point" test_result="161 to 163 °C"
molecule="CCCCCCCCCCCCCCCCC(C)c1cccc2c1OC(=O)C2c1ccccc1 (stereo not given)" reported_endpoint="melting point" test_result="60 to 62 °C"
molecule="C=CCC(NC(=O)c1ccc(OC)cc1)C(=O)O (stereo not given)" reported_endpoint="melting point" test_result="121 to 124 °C"
